// data source = PubChem BioAssay AID1963836

Reported pIC50 values for the following molecules.
- Test system: 857933-349-R-J2-PDC complex spheroid viability;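 further: spheroids exposed to compounds for seven days before readout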
- assay_procedure: Anticancer human tumor 857933-349-R-J2-PDC patient-derived colon adenocarcinoma cell line growth inhibition [POLQ]
- particulars: curve of first compound; second compound 0.316 µM
pIC50: −log10 of the molar value.
measured_property: pIC50

molecule: CC(=O)O[C@H]1C(=O)[C@@]2(C)[C@H]([C@H](OC(=O)c3ccccc3)[C@]3(O)C[C@H](OC(=O)[C@H](O)[C@@H](NC(=O)c4ccccc4)c4ccccc4)C(C)=C1C3(C)C)[C@]1(OC(C)=O)CO[C@@H]1C[C@@H]2O + Nc1ccc(C#CCN(C(=O)Cc2ncc(C(F)(F)F)cc2C(F)(F)F)c2ccc(F)cc2)nn1
inequality_sign: =
value_reported: 7.89
--
molecule: CCc1cc2c(N3CCc4c(cc(Cn5ccnc5)cc4-c4cn(C)nc4C(F)(F)F)C3=O)ccnc2c(OC)n1 + COC1C(OC(N)=O)C(O)C(Oc2ccc3c(O)c(NC(=O)c4ccc(O)c(CC=C(C)C)c4)c(=O)oc3c2C)OC1(C)C
inequality_sign: <
value_reported: 5.00
--
molecule: CC1COCCN1c1cc(C2(S(C)(=N)=O)CC2)nc(-c2ccnc3[nH]ccc23)n1 (stereo not given) + COC1C(OC(N)=O)C(O)C(Oc2ccc3c(O)c(NC(=O)c4ccc(O)c(CC=C(C)C)c4)c(=O)oc3c2C)OC1(C)C
inequality_sign: =
value_reported: 5.40
--
molecule: CNCc1ccc(-c2[nH]c3cc(F)cc4c3c2CCNC4=O)cc1 + COC1C(OC(N)=O)C(O)C(Oc2ccc3c(O)c(NC(=O)c4ccc(O)c(CC=C(C)C)c4)c(=O)oc3c2C)OC1(C)C
inequality_sign: <
value_reported: 5.00
--
molecule: CCc1c2c(nc3ccc(O)cc13)-c1cc3c(c(=O)n1C2)COC(=O)[C@]3(O)CC + Cc1cccc(N(C)C(=O)C2C(O)CCN2c2nc(C)cc(C(F)(F)F)c2C#N)c1
inequality_sign: =
value_reported: 7.85
--
molecule: O=c1[nH]cc(F)c(=O)[nH]1 + COC1C(OC(N)=O)C(O)C(Oc2ccc3c(O)c(NC(=O)c4ccc(O)c(CC=C(C)C)c4)c(=O)oc3c2C)OC1(C)C
inequality_sign: =
value_reported: 5.64
--
molecule: Nc1ccn(C2OC(CO)C(O)C2(F)F)c(=O)n1 (stereo not given) + Nc1ccc(C#CCN(C(=O)Cc2ncc(C(F)(F)F)cc2C(F)(F)F)c2ccc(F)cc2)nn1
inequality_sign: =
value_reported: 6.90
--
molecule: COc1cccc2c1C(=O)c1c(O)c3c(c(O)c1C2=O)CC(O)(C(=O)CO)CC3OC1CC(N)C(O)C(C)O1 (stereo not given) + Nc1ccc(C#CCN(C(=O)Cc2ncc(C(F)(F)F)cc2C(F)(F)F)c2ccc(F)cc2)nn1
inequality_sign: =
value_reported: 6.63
--
molecule: CCc1cc2c(N3CCc4c(cc(Cn5ccnc5)cc4-c4cn(C)nc4C(F)(F)F)C3=O)cc(C)nc2c(OC)n1 + COC1C(OC(N)=O)C(O)C(Oc2ccc3c(O)c(NC(=O)c4ccc(O)c(CC=C(C)C)c4)c(=O)oc3c2C)OC1(C)C
inequality_sign: <
value_reported: 5.00
--
molecule: O=C(c1cc(Cc2n[nH]c(=O)c3ccccc23)ccc1F)N1CCN(C(=O)C2CC2)CC1 + COC1C(OC(N)=O)C(O)C(Oc2ccc3c(O)c(NC(=O)c4ccc(O)c(CC=C(C)C)c4)c(=O)oc3c2C)OC1(C)C
inequality_sign: <
value_reported: 5.00
